Entries and their TGI
# Tested on: HOP-92 NSCLC
# Assay notes: NCI tumour cell line growth inhibition, 48 h
Answer with a number only, understood to be in µM.

Before answering, review these 2 worked examples.
O=c1oc2cc(O)ccc2c2[nH]c3cc(O)ccc3c12    95.4
Cc1ccc(C2(O)c3ccccc3C(=O)N(C)C2(O)c2ccc(C)cc2)cc1 (configuration not stated)    91.1

Lab note: `Cn1c(N/N=C/c2ccccc2)nc(-c2ccc3c(c2)OCO3)c(C#N)c1=O` gave TGI of 67.2

====

# System: HOP-92 NSCLC
# Assay notes: NCI tumour cell line growth inhibition, 48 h; in the data active = GI50 below about 0.43 µM; inactive = the rest
Outcomes you can answer with include only these: 1 (yes) for active, 0 (no) for inactive

Cc1cc2c(cc1Cl)SC(N(c1ccccc1Cl)S(=O)(=O)c1ccc(Br)s1)=NS2(=O)=O    0 (no)
O=C(Nc1ccc(OS(=O)(=O)c2ccc(F)cc2)cc1)C12CC3CC(CC(C3)C1)C2    0 (no)
Cc1c2cnccc2c(C)c2c1c1cc(O)ccc1n2C(C)C    0 (no)

Please turn your attention to the following entry.
[Q] Hey, what did the test say about Cc1c(C)c2c(c(C)c1OC(=O)CCC(=O)[O-])CCC(C)(CCCCCCCCCCC[P+](c1ccccc1)(c1ccccc1)c1ccccc1)O2 (centres undefined) ?
[A] 1 (yes)

====

# Tested on: HL-60(TB) leukemia
# Assay notes: NCI tumour cell line growth inhibition, 48 h
Measured property: TGI

O=c1cc(-c2ccc(Cl)cc2)[nH]c2ccccc12    > 100 µM

Lab note: Nc1nc(=O)n(C2CC(O)C(CO)O2)cc1F (stereo not drawn) gave TGI of > 100 µM

Lab note: `C/C(=C1/N=C(c2cc([N+](=O)[O-])ccc2Cl)N(c2ccc(Br)cc2)C1=O)c1ccc(N(CCC#N)CCC#N)cc1C` gave TGI of 36.3 µM

Lab note: Cc1ccccc1NC(=O)CC1C(=O)Nc2ccccc2S1=O (stereo not drawn) gave TGI of > 100 µM

Lab note: `Cc1cc(C)cc(Nc2nnc3n2S(=O)(=O)c2cc(C)c(Cl)cc2S3)c1` gave TGI of > 100 µM

Lab note: `Clc1ccc(-c2cc(-c3ccccc3)nc(N3CCN(CCCNc4ccnc5cc(Cl)ccc45)CC3)n2)cc1` gave TGI of 2.83 µM

Lab note: `O=Cc1c2c(cc3c1CC1(C3)Cc3cc4c(c(C=O)c3C1)CCCC4)CCCC2` gave TGI of > 100 µM

Lab note: `CC1=C(C(=O)NNC(=O)Cc2ccccc2)CC(C(=O)NNC(=O)Cc2ccccc2)=C(C)N1` gave TGI of > 100 µM

Lab note: `COC(CNC(=O)CNC(=O)c1ccc(C(F)(F)F)cc1)OC` gave TGI of > 100 µM

Lab note: `C=C1CC[C@@]2(C)[C@@H]([C@@H]1C)[C@H]1CC[C@@H]3[C@@]4(C)CC[C@H](O)C(C)(C)[C@@H]4CC[C@@]3(C)[C@]1(C)C[C@@H]2O` gave TGI of > 55.7 µM

Lab note: `CCCCCC/C=C/C#CCCCCCCCC(=O)O` gave TGI of > 100 µM

====

# Tested on: OVCAR-5 ovarian
# Assay notes: NCI tumour cell line growth inhibition, 48 h
Measured property: TGI

Before answering, review these 4 worked examples.
COc1ccc2c(c1)CC[C@@H]1[C@@H]2CC[C@]2(C)/C(=N/OCCN3CCCC3)CC[C@@H]12    10.1 µM
COC(=O)c1cc(-c2ccc3ccccc3c2)[nH]c(=O)c1C#N    > 100 µM
Cc1cc(F)c(C(=O)Nc2cccc(-c3nncn3C(C)C)n2)cc1-n1cnc(C2CC2)c1    > 100 µM
CN1C(=O)N(C)C2(CCN(CC(CC3OCCO3)c3ccc(F)cc3)CC2)C1=O (stereo not given)    > 100 µM

Then there is this compound:
Test item Cc1cc(=O)oc2c(C3=NN(C=O)C(c4ccccc4)C3)c(O)ccc12 (stereo not given) ; OVCAR-5 ovarian; reported TGI was > 100 µM

====

Entries and their TGI
# Tested on: HCT-116 colon
# Assay notes: NCI tumour cell line growth inhibition, 48 h

Before answering, review these 2 worked examples.
O=C1C=CC2(CCCCCCC2=O)CC1 (stereo not drawn)    > 100 µM
C[C@@H](O)[C@@H](C)Oc1nc(Nc2ccc(S(=N)(=O)C3CC3)cc2)ncc1C(F)(F)F (stereo partly drawn)    > 100 µM

Test item `Cc1nnc(C[C@@H]2C=C(c3ccc(Cl)cc3)c3ccccc3-n3c(C)nnc32)o1` ; HCT-116 colon; reported TGI was 31.9 µM

Test item `CCOC(=O)/C=C/n1c2ccccc2c(=O)c2cc(OC)ccc21` ; HCT-116 colon; reported TGI was > 100 µM

Test item `Cc1cccc2c(C3=C(c4cn(C)c5ccccc45)C(=O)NC3=O)cn(C)c12` ; HCT-116 colon; reported TGI was > 25 µM

Test item `CN1CCN(CCCOc2cccc3nc(Nc4cc(Cl)cc(Cl)c4)ccc23)CC1` ; HCT-116 colon; reported TGI was 3.47 µM

====

# System: UACC-62 melanoma
# Assay notes: NCI tumour cell line growth inhibition, 48 h
Measured property: TGI

Before answering, review these 3 worked examples.
N=c1c2sc3nc4ccccc4n3c2ncn1Cc1ccccc1    > 100 µM
C1=N[C@]23C(=N[C@H](N=C2NCc2ccco2)[C@]24N=CNC2=N[C@H]3N=C4NCc2ccco2)N1    > 100 µM
CC(C)C[C@H](CC(=O)O)C(=O)N[C@@H](Cc1c[nH]c2ccccc12)C(=O)N[C@@H](C)c1ccccc1    > 25 µM

Then there is this compound:
Lab note: `O=C(O)c1cc2ccccc2c(Cc2c(O)c(C(=O)O)cc3ccccc23)c1O` gave TGI of > 100 µM

====

# Tested on: LXFL 529 NSCLC
# Assay notes: NCI tumour cell line growth inhibition, 48 h
Entries and their TGI

Before answering, review these 2 worked examples.
NC1=NN(c2ccccc2)C(=O)C1C(=O)C(=O)Nc1ccc(Cl)cc1 (stereo not drawn)    > 100 µM
CCCCC(C(=O)C(=O)Nc1ccc(C)cc1C)C(=O)C(C)C (stereo not drawn)    > 100 µM

Lab note: CC1CC(C[N+](=O)[O-])CC2(C1)OCCO2 (stereo not drawn) gave TGI of > 100 µM

====

# System: DLD-1 colon
# Assay notes: NCI tumour cell line growth inhibition, 48 h
Entries and their TGI

Cc1ccccc1/C=C/c1csnn1    > 74.3 µM

Lab note: COC1(OC)CC2C(=O)N(Cc3ccccc3)C1C(S(=O)(=O)c1ccccc1)C2C(C)S(=O)(=O)c1ccccc1 (centres undefined) gave TGI of > 100 µM

Lab note: `C/C(NNC(=O)c1ccccc1O)=C1\C=Nc2ccccc2S1` gave TGI of > 100 µM

Lab note: `NCCOc1ccc(/C(=C(/Cl)c2ccccc2)c2ccccc2)cc1` gave TGI of 33.3 µM

====

# Test system: SK-OV-3 ovarian
# Assay notes: NCI tumour cell line growth inhibition, 48 h
Measured property: TGI (µM)
Answer with a number only, understood to be in µM.

CC(NC(=O)Cc1ccc(OP(=O)(OCc2ccc([N+](=O)[O-])o2)N(C)CCCCCl)cc1)c1ccc(OCC2CCCCC2)c(C(N)=O)c1 (stereo not given)    11

Then there is this compound:
Test item `Clc1ccc(-c2cc(-c3ccccc3)nc(N3CCN(CCCNc4ccnc5cc(Cl)ccc45)CC3)n2)cc1` ; SK-OV-3 ovarian; reported TGI was 3.17

====

Entries and their TGI
# Test system: RXF 393 renal
# Assay notes: NCI tumour cell line growth inhibition, 48 h

CC(=O)Nc1ccccc1-c1nc2ccccc2nc1-c1ccccc1    > 100 µM
C=CC(=O)N[C@@H]1CN(c2nc(Nc3cn(C)nc3OC)c3ncn(C)c3n2)C[C@H]1F    > 84.5 µM
C#CCN(N=O)C(=O)NC(CCCCNC(=O)OCc1ccccc1)C(=O)OCc1ccccc1 (stereo unspecified)    > 100 µM
CC(=O)C(N1CCCCC1)C(O)(C(F)(F)F)C(F)(F)F (stereo unspecified)    > 100 µM
CC(Oc1cc2oc(=O)cc(-c3ccccc3)c2cc1Cl)C(=O)O (stereo unspecified)    > 100 µM

Lab note: `N/C(=N\N=C\c1cc2ccccc2s1)c1cnccn1` gave TGI of > 100 µM

Lab note: `CCOC(=O)COc1cc(-c2ccccc2F)nc2cc3c(cc12)OCO3` gave TGI of > 100 µM

Lab note: `O=C1NC(=O)C(C(=O)C(=O)Nc2cc(Cl)ccc2Cl)C(=O)N1` gave TGI of > 100 µM

Lab note: `COC(=O)c1cc(-c2ccc3ccccc3c2)[nH]c(=O)c1C#N` gave TGI of > 100 µM

Lab note: `O=Cc1c2c(cc3c1CC1(C3)Cc3cc4c(c(C=O)c3C1)CCCC4)CCCC2` gave TGI of > 31.6 µM

Lab note: `CCOC(=O)NN(C(=O)OCC)c1ccc(N=Nc2ccc(OC)cc2)n1C` gave TGI of > 100 µM
